Where these numbers come from: ChEMBL document CHEMBL1909046

Assay: DRUGMATRIX: Imidazoline I2, Central radioligand binding (ligand: [3H] Idazoxan)
Type: cell membranes, Rattus norvegicus, Wistar, Cerebral cortex, Membrane
Conditions: Not Active = under 50% inhibition at 10 µM

{"COMPOUND": "OC[C@H]1O[C@@H]2O[C@H]3[C@H](O)[C@@H](O)[C@@H](O[C@H]4[C@H](O)[C@@H](O)[C@@H](O[C@H]5[C@H](O)[C@@H](O)[C@@H](O[C@H]6[C@H](O)[C@@H](O)[C@@H](O[C@H]7[C@H](O)[C@@H](O)[C@@H](O[C@H]1[C@H](O)[C@H]2O)O[C@@H]7CO)O[C@@H]6CO)O[C@@H]5CO)O[C@@H]4CO)O[C@@H]3CO", "Ki": "Not Active"}
{"COMPOUND": "O=C1CC[C@@]2(O)[C@H]3Cc4ccc(O)c5c4[C@@]2(CCN3CC2CC2)[C@H]1O5 [NALTREXONE]", "Ki": "Not Active"}

###

Target: Estrogen receptor (Homo sapiens, UniProt P03372); further: in other assays of this panel Not Active means under 50% inhibition at 10 µM
Sequence (P03372 whole entry): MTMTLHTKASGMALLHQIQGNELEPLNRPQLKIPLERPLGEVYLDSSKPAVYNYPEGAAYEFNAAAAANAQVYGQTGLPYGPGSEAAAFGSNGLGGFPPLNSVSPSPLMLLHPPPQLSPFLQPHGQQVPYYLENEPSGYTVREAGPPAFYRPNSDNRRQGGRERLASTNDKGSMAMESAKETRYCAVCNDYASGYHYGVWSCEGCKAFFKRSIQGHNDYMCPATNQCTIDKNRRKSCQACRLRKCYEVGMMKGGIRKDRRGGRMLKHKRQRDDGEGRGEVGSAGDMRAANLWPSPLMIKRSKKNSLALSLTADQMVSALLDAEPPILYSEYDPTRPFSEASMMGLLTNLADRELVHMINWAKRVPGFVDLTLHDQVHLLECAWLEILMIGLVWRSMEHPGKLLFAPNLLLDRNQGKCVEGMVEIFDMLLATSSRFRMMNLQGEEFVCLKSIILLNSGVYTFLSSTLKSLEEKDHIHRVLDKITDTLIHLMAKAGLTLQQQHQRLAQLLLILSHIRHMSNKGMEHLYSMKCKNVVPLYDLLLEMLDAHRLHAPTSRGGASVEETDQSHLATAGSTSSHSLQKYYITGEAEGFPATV
Assay: biochemical
READOUT: pKi
As a rule, pKi stands for the negative log10 of the concentration, concentration in M.

Request: Missing value: pKi, Estrogen receptor (Homo sapiens, UniProt P03372), entry "C#C[C@]1(O)CC[C@H]2[C@@H]3[C@H](C)CC4=C(CCC(=O)C4)[C@H]3CC[C@@]21C" . Fill in?
Response: 6.91

###

Experiment: DRUGMATRIX: GABAA, Chloride Channel, TBOB radioligand binding (ligand: [3H] TBOB)
Format: cell membranes, Rattus norvegicus, Wistar, Cerebral cortex, Membrane
Details: Not Active = under 50% inhibition at 10 µM
READOUT: Ki

These recorded examples may help you get a feel for the data.
{"SUBSTANCE_SMILES": "C=CCc1ccc2c(c1)OCO2", "ENDPOINT_RESULT": "Not Active"}
{"SUBSTANCE_SMILES": "O=C1c2ccccc2C(=O)C1c1ccccc1", "ENDPOINT_RESULT": "Not Active"}
{"SUBSTANCE_SMILES": "CC[C@H]1OC(=O)[C@H](C)[C@@H](O[C@H]2C[C@@](C)(OC)[C@@H](O)[C@H](C)O2)[C@H](C)[C@@H](O[C@@H]2O[C@H](C)C[C@H](N(C)C)[C@H]2O)[C@](C)(O)C[C@@H](C)C(=O)[C@H](C)[C@@H](O)[C@]1(C)O", "ENDPOINT_RESULT": "Not Active"}
{"SUBSTANCE_SMILES": "CC(C)(C)NC[C@H](O)COc1cccc2c1CCCC2=O", "ENDPOINT_RESULT": "Not Active"}
{"SUBSTANCE_SMILES": "Cc1[nH]c(=O)c(C#N)cc1-c1ccncc1", "ENDPOINT_RESULT": "Not Active"}
{"SUBSTANCE_SMILES": "O=C1CN(/N=C/c2ccc([N+](=O)[O-])o2)C(=O)N1", "ENDPOINT_RESULT": "Not Active"}
{"SUBSTANCE_SMILES": "Nc1ccc(Cc2ccc(N)cc2)cc1", "ENDPOINT_RESULT": "Not Active"}

Request: Fill blank: measured Ki of the compound "CO[C@@]12[C@H](COC(N)=O)C3=C(C(=O)C(C)=C(N)C3=O)N1C[C@@H]1N[C@@H]12" is ____.
Response: Not Active

###

Entries with reported pIC50 on Cytochrome P450 2C19 (Homo sapiens, UniProt P33261)
Sequence (P33261 whole entry): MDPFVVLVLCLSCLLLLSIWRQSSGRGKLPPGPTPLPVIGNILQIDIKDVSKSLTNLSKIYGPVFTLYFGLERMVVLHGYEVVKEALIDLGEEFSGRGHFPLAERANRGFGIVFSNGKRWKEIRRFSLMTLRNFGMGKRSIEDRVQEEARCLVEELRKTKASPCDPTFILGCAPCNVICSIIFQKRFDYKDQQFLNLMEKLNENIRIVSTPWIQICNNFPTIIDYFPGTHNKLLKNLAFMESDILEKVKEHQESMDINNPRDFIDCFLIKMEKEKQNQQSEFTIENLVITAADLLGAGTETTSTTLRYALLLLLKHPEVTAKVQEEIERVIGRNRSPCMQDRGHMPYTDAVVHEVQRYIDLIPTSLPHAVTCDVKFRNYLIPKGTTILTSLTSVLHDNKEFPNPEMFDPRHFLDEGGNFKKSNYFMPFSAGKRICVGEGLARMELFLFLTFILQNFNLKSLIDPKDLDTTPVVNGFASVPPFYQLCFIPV
As a rule, pIC50 stands for the negative log10 of the concentration, concentration in M.

{"COMPOUND": "COc1cc([C@@H]2c3cc4c(cc3[C@H](O)[C@H]3COC(=O)[C@H]23)OCO4)cc(OC)c1OC", "ENDPOINT_RESULT": 5.30}
{"COMPOUND": "CCOc1cc(N)c(Cl)cc1C(=O)NCC1CN(Cc2ccc(F)cc2)CCO1 (centres undefined) [MOSAPRIDE]", "ENDPOINT_RESULT": 6.00}
{"COMPOUND": "CCOC(=O)C1=C(C)NC(C)=C(C(=O)OCC)C1c1ccccc1/C=C/C(=O)OC(C)(C)C", "ENDPOINT_RESULT": 5.70}

Request: Fill blank: measured pIC50 of the compound "C#C[C@]1(O)CC[C@H]2[C@@H]3[C@H](C)CC4=C(CCC(=O)C4)[C@H]3CC[C@@]21C" is ____.
Response: 5.52

###

Molecular target: Cannabinoid receptor 1 (Homo sapiens); further: in other assays of this panel Not Active means under 50% inhibition at 10 µM
Sequence (P21554 whole entry): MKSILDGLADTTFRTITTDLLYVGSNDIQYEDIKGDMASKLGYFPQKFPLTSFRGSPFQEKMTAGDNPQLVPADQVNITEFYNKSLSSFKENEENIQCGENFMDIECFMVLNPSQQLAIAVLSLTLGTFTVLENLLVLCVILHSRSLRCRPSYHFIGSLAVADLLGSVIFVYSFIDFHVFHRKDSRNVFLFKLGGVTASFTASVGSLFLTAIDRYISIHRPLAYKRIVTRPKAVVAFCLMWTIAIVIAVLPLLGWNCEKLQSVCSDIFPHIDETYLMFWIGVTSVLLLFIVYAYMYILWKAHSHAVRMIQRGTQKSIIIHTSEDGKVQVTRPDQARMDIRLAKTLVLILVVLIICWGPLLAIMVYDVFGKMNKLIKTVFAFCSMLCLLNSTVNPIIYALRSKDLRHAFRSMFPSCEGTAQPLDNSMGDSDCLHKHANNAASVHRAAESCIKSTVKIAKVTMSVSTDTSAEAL
Format: cell membranes, Chem-1, Membrane
Details: chem-1
READOUT: IC50

{"MOLECULE": "Cc1cc2c(s1)Nc1ccccc1N=C2N1CCN(C)CC1 [OLANZAPINE]", "IC50": "Not Active"}
{"MOLECULE": "CC(=O)O[C@]1(C(C)=O)CC[C@H]2[C@@H]3C[C@H](C)C4=CC(=O)CC[C@]4(C)[C@H]3CC[C@@]21C [MEDROXYPROGESTERONE ACETATE]", "IC50": "Not Active"}
{"MOLECULE": "C=CCN1CC[C@]23c4c5ccc(O)c4O[C@H]2/C(=N/N=C2\\CC[C@@]4(O)[C@H]6Cc7ccc(O)c8c7[C@@]4(CCN6CC=C)[C@H]2O8)CC[C@@]3(O)[C@H]1C5 [NALOXONAZINE]", "IC50": "Not Active"}
{"MOLECULE": "C=CCO [ALLYL ALCOHOL]", "IC50": "Not Active"}
{"MOLECULE": "CS(=O)(=O)c1ccc(C2=C(c3ccccc3)C(=O)OC2)cc1 [ROFECOXIB]", "IC50": "Not Active"}

Request: Missing value: IC50, Cannabinoid receptor 1 (Homo sapiens), entry "CC[C@H](C)[C@@H](CO[C@@H](Cc1ccccc1)C(=O)N[C@@H](CCS(C)(=O)=O)C(=O)OC(C)C)NC[C@@H](N)CS" . Fill in?
Response: Not Active

Request: Next up: CC(C)Cc1ccc([C@H](C)C(=O)O)cc1 [DEXIBUPROFEN]
Response: Not Active

###

Assay: DRUGMATRIX: Purinergic P2X radioligand binding (ligand: [3H] alpha, beta-Methylene-ATP)
Format: cell membranes, Oryctolagus cuniculus, New Zealand albino, Urinary bladder, Membrane
Settings: Not Active = under 50% inhibition at 10 µM
READOUT: Ki

{"COMPOUND": "NC(=O)NC(=O)Cc1ccccc1 [PHENACEMIDE]", "READOUT": "Ki", "ENDPOINT_RESULT": "Not Active"}
{"COMPOUND": "C[C@]12CCC(=O)C[C@@H]1CC[C@@H]1[C@@H]2CC[C@]2(C)[C@@H](O)CC[C@@H]12 [STANOLONE]", "READOUT": "Ki", "ENDPOINT_RESULT": "Not Active"}
{"COMPOUND": "O=C(OC[C@H]1O[C@@H](OC(=O)c2cc(O)c(O)c(OC(=O)c3cc(O)c(O)c(O)c3)c2)[C@H](OC(=O)c2cc(O)c(O)c(OC(=O)c3cc(O)c(O)c(O)c3)c2)[C@@H](OC(=O)c2cc(O)c(O)c(OC(=O)c3cc(O)c(O)c(O)c3)c2)[C@@H]1OC(=O)c1cc(O)c(O)c(OC(=O)c2cc(O)c(O)c(O)c2)c1)c1cc(O)c(O)c(OC(=O)c2cc(O)c(O)c(O)c2)c1 [TANNIC ACID]", "READOUT": "Ki", "ENDPOINT_RESULT": "Not Active"}

###

Biological target: 5-hydroxytryptamine receptor 4 (Cavia porcellus, UniProt O70528); further: in other assays of this panel Not Active means under 50% inhibition at 10 µM
Sequence (O70528 whole entry): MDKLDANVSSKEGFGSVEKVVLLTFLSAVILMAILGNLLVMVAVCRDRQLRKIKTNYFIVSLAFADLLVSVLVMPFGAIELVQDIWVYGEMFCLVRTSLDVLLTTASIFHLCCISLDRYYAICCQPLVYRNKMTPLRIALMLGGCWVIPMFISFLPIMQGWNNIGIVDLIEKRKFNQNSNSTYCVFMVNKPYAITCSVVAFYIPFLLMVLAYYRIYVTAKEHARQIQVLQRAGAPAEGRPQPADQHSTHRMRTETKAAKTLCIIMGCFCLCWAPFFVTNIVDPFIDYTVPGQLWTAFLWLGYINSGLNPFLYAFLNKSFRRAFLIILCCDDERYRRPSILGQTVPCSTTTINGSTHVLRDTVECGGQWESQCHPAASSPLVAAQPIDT
Format: cell membranes, Dunkin-Hartley, Striatum, Membrane
READOUT: IC50

{"MOLECULE": "Cc1c(N)nc([C@H](CC(N)=O)NC[C@H](N)C(N)=O)nc1C(=O)N[C@H](C(=O)N[C@H](C)[C@@H](O)[C@H](C)C(=O)N[C@H](C(=O)NCCc1nc(-c2nc(C(=O)NCCC[S+](C)C)cs2)cs1)[C@@H](C)O)[C@@H](O[C@@H]1O[C@@H](CO)[C@@H](O)[C@H](O)[C@@H]1O[C@H]1O[C@H](CO)[C@@H](O)[C@H](OC(N)=O)[C@@H]1O)c1c[nH]cn1.[Br-]", "IC50": "Not Active"}
{"MOLECULE": "OC[C@H]1O[C@@H]2O[C@H]3[C@H](O)[C@@H](O)[C@@H](O[C@H]4[C@H](O)[C@@H](O)[C@@H](O[C@H]5[C@H](O)[C@@H](O)[C@@H](O[C@H]6[C@H](O)[C@@H](O)[C@@H](O[C@H]7[C@H](O)[C@@H](O)[C@@H](O[C@H]1[C@H](O)[C@H]2O)O[C@@H]7CO)O[C@@H]6CO)O[C@@H]5CO)O[C@@H]4CO)O[C@@H]3CO", "IC50": "Not Active"}
{"MOLECULE": "CNCCCC12CCC(c3ccccc31)c1ccccc12", "IC50": "Not Active"}
{"MOLECULE": "O=C(O)CO", "IC50": "Not Active"}
{"MOLECULE": "CC(O)C(=O)O (stereo not drawn)", "IC50": "Not Active"}

Request: Fill blank: measured IC50 of the molecule "Nc1ccc(Cc2ccc(N)cc2)cc1" is ____.
Response: Not Active

Request: Next up: CCN(CCO)CCCC(C)Nc1ccnc2cc(Cl)ccc12 (stereo not drawn) [HYDROXYCHLOROQUINE]
Response: Not Active

Request: Next up: "Nc1nc(F)nc2c1ncn2[C@@H]1O[C@H](CO)[C@@H](O)[C@@H]1O"
Response: Not Active

Request: Next up: "CC1=C(/C=C/C(C)=C/C=C/C(C)=C/C(=O)O)C(C)(C)CCC1"
Response: Not Active
